- System under test: Enoyl-(Acyl-carrier-protein) reductase (Streptococcus pneumoniae, UniProt Q9FBC5)
- Sequence (Q9FBC5 whole entry): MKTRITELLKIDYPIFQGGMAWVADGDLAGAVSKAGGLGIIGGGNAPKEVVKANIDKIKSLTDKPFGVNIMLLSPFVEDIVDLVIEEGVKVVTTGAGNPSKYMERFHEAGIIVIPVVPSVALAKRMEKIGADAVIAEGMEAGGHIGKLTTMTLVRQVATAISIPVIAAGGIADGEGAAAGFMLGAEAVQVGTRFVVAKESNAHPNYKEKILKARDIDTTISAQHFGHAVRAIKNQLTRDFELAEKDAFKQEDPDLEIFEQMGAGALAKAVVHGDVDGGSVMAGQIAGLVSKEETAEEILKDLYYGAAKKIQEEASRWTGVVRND
Literature compilation of IC50 measurements on Enoyl-(Acyl-carrier-protein) reductase (Streptococcus pneumoniae, UniProt Q9FBC5).

Here's what some known entries look like.
CS(=O)(=O)c1ccc2nc(NC(=O)NCCc3cnc[nH]3)sc2c1: > 32 µM
Cc1c(Cc2c(Cl)cccc2Cl)c(=O)ccn1CCc1ccc(-c2c[nH]c(CNC(=O)Nc3ncc(S(C)(=O)=O)s3)n2)cc1: 0.0094 µM
Cc1c(Cc2c(Cl)cccc2Cl)c(=O)ccn1CCc1ccc(-c2c[nH]c(CNC(=O)Nc3ncc(Sc4ccccn4)s3)n2)cc1: 0.016 µM

// IC50 lookup, key: O=C(CSc1nc2ccccc2[nH]1)Nc1nc2ccccc2s1
> 32 µM

Any idea what its IC50 is? The molecule is O=C(NCc1nc(-c2ccccc2)c[nH]1)Nc1nc(-c2ccccc2)cs1
> 32 µM

Which IC50 is listed for O=C(CSc1nc2ccccc2[nH]1)Nc1nc2ccc(C(=O)O)cc2s1 ?
> 32 µM

I'd like to know its IC50. The molecule in question is Cn1cc(CNC(=O)/C=C/c2cnc3c(c2)CCC(=O)N3)c2ccccc21
> 32 µM

Look up IC50: COc1ccc2sc(NC(=O)NCc3nc4ccccc4[nH]3)nc2c1
> 32 µM

Fill in the blank: the reported IC50 of Cc1c(Cc2c(Cl)cccc2Cl)c(=O)ccn1CCc1ccc(-c2c[nH]c(CNC(=O)Nc3ncc[nH]3)n2)cc1 is ____.
> 32 µM

Which IC50 value belongs to COc1cccc2sc(NC(=O)NCc3nc4ccccc4[nH]3)nc12 ?
> 32 µM

Sample O=C(NCc1nc2ccccc2[nH]1)Nc1nc2ccc(F)cc2s1 — what was its IC50?
6.4 µM

What does the data say about its IC50? Entry: O=C(Nc1nc2ccccc2s1)OCc1nc2ccccc2[nH]1
> 32 µM

Which value of IC50 has been reported for Cc1c(Cc2c(Cl)cccc2Cl)c(=O)ccn1CCCc1ccc(-c2c[nH]c(CNC(=O)Nc3ncc(Br)s3)n2)cc1 in the records?
6.6 µM
